The values you see were collected from patent US9951064B2.

# Tested On: EGFR del746-750 T790M (Homo sapiens, UniProt P00533, DEL746-750/T790M)
# Sequence (P00533 with tags, fused parts or gaps DEL746-750/T790M limits assumed): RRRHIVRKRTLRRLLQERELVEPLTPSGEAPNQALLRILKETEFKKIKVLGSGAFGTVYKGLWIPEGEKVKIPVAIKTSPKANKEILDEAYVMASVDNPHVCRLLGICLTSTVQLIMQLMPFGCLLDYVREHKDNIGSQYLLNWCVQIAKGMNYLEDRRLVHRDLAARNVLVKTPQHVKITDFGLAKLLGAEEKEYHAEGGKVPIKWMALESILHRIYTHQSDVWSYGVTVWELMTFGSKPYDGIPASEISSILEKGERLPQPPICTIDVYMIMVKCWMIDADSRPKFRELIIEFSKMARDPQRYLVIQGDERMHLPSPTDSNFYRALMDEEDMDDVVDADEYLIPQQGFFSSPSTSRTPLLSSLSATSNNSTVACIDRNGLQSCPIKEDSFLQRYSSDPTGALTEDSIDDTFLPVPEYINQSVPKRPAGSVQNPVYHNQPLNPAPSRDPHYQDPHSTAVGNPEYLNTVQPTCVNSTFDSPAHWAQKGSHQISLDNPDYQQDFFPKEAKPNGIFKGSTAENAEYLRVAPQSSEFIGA
# Method Notes: EGFR del746-750 T790M biochemical assay (Caliper mobility shift)
# Applied Conditions: 5 μM ATP; apparent Ki (Morrison fit) converted by Cheng-Prusoff, Km of ATP 2.1 μM; read-out: EGFR(T790M/d746-750) Ki
pKi: −log10 of the molar value.
Observed Property: pKi

Example results:
CC(n1nc(N2CC3(COC3)C2)c2cnc(Nc3ccnc(-c4cnn(S(=O)(=O)C5CC5)c4)n3)cc21)C(F)(F)F (stereo not shown) : 8.60
CC(C)n1nc(N2CC(C)(CO)C2)c2cnc(Nc3ccnc(-c4cnn(S(=O)(=O)C5CC5)c4)n3)cc21 : 9.00
CC(C)n1nc(N2CC(C(=O)N3CC4CCC(C3)O4)C2)c2cnc(Nc3ccnc(-c4cnn(S(=O)(=O)C5CC5)c4)n3)cc21 : 8.92
COC1CCN(c2nccc(Nc3cc4c(cn3)c(N3CC5(COC5)C3)nn4C(C)C)n2)CC1F (racemic) : 8.41

[P] CCC(C)n1nc(N2CC3(COC3)C2)c2cnc(Nc3ccnc(N4CC[C@@H](O)[C@@H](F)C4)n3)cc21 (single isomer, unassigned) [Example 198]
[Q] CC(C)n1nc(NCCC2OCC(N)CO2)c2cnc(Nc3ccnc(N4CCC(C)(O)CC4)n3)cc21 (stereo not shown)
Smaller pKi value? Options are P and Q Pick one and reply with its label. Q
